Test system: RS4;11 cells
Test details: RS4;11 cell viability, CCK-8 assay
Assay type: cell-based
Reported conditions: Homo sapiens, RS4-11, 96 h, CCK-8, 4 days, read-out: RS4, 11 IC50 (Bcl-2 dependent)
Threshold 0.04 µM: IC50 strictly smaller gives 1 (yes), otherwise 0 (no).

O=C(NS(=O)(=O)c1ccc(NCC2CCOCC2)c([N+](=O)[O-])c1)c1ccc(C2CCN(CC3=C(c4ccc(Cl)cc4)CC4(CCC4)CC3)CC2)cc1Oc1cnc2[nH]ccc2c1 | 0 (no)

Query: In the record for "O=C(NS(=O)(=O)c1cccc([N+](=O)[O-])c1)c1ccc(N2CCN(CC3=C(c4ccc(Cl)cc4)CC4(CCC4)CC3)CC2)cc1Oc1cnc2[nH]ccc2c1" , is IC50 less than 0.04 µM?
Reply: 0 (no)

Query: In the record for "COCCOCCNc1ccc(S(=O)(=O)NC(=O)c2ccc(N3CCN(CC4=C(c5ccc(Cl)cc5)CC5(CCC5)CC4)CC3)c(F)c2Oc2cnc3[nH]ccc3c2)cc1[N+](=O)[O-]" , is IC50 less than 0.04 µM?
Reply: 0 (no)

Query: In the record for "O=C(NS(=O)(=O)c1ccc(NCC2CCOCC2)c([N+](=O)[O-])c1)c1ccc(C2=CCN(CC3=C(c4ccc(Cl)cc4)CC4(CCC4)CC3)CC2)cc1Oc1cnc2[nH]ccc2c1" , is IC50 less than 0.04 µM?
Reply: 1 (yes)

Query: In the record for "O=C(NS(=O)(=O)c1ccc(NC[C@@H]2COCCO2)c([N+](=O)[O-])c1)c1ccc(C2=CCN(CC3=C(c4ccc(Cl)cc4)CC4(CCC4)CC3)CC2)cc1Oc1cnc2[nH]ccc2c1" , is IC50 less than 0.04 µM?
Reply: 1 (yes)

Query: In the record for "O=C(NS(=O)(=O)c1ccc(NC[C@H]2COCCO2)c([N+](=O)[O-])c1)c1ncc(N2CCN(CC3=C(c4ccc(Cl)cc4)CC4(CCC4)CC3)CC2)cc1Oc1cnc2[nH]ccc2c1" , is IC50 less than 0.04 µM?
Reply: 1 (yes)

Query: In the record for "COCCOCCNc1ccc(S(=O)(=O)NC(=O)c2cc(F)c(N3CCN(CC4=C(c5ccc(Cl)cc5)CC5(CCC5)CC4)CC3)cc2Oc2cnc3[nH]ccc3c2)cc1[N+](=O)[O-]" , is IC50 less than 0.04 µM?
Reply: 0 (no)

Query: In the record for "O=C(NS(=O)(=O)c1ccc(NC[C@@H]2COCCO2)c([N+](=O)[O-])c1)c1ccc(N2CCN(CC3=C(c4ccc(Cl)cc4)CC4(CCC4)CC3)CC2)cc1Oc1cnc2[nH]ccc2c1" , is IC50 less than 0.04 µM?
Reply: 1 (yes)

Query: In the record for "O=C(NS(=O)(=O)c1cc([N+](=O)[O-])c2[nH]c(-c3ccncc3)nc2c1)c1ccc(N2CCN(CC3=C(c4ccc(Cl)cc4)CC4(CCC4)CC3)CC2)cc1Oc1cnc2[nH]ccc2c1" , is IC50 less than 0.04 µM?
Reply: 0 (no)

Query: In the record for "COCCOCCn1nc2cc(S(=O)(=O)NC(=O)c3ccc(N4CCN(CC5=C(c6ccc(Cl)cc6)CC6(CCC6)CC5)CC4)cc3Oc3cnc4[nH]ccc4c3)cc([N+](=O)[O-])c2c1F" , is IC50 less than 0.04 µM?
Reply: 1 (yes)

Query: In the record for "O=C(NS(=O)(=O)c1ccc(NC[C@@H]2COCCO2)c([N+](=O)[O-])c1)c1ccc(N2CCN(CC3=C(c4ccc(Cl)cc4)CC4(CC3)COC4)CC2)cc1Oc1cnc2[nH]ccc2c1" , is IC50 less than 0.04 µM?
Reply: 1 (yes)
